- SYSTEM: AChE (Rattus norvegicus, UniProt P37136)
- Construct: AChE (0.5 U/mg) was extracted from rat cortex; from tissue; host or cells: rat cortex
- Sequence (P37136 32-614): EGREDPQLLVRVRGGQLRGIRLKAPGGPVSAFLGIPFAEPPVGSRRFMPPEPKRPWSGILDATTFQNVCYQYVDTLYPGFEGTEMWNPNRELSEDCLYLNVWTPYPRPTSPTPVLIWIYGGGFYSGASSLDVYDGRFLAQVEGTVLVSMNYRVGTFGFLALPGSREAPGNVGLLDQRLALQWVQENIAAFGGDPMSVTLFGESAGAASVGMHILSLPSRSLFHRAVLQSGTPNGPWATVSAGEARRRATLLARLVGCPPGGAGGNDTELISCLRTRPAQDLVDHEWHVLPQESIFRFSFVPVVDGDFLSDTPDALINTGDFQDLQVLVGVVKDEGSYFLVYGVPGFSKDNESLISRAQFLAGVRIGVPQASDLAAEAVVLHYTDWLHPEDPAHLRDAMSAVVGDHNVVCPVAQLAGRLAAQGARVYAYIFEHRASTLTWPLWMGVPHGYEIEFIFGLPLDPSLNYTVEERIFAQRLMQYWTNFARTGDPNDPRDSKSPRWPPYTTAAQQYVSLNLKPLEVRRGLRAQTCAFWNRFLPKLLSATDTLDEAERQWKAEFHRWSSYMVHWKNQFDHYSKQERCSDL
- EXPERIMENT DESCRIPTION: biochemical
- TEST CONDITIONS: 50 μM compound; AChE extracted from rat cortex; pre-incubated 60 min at 37 °C; read-out: Inhibition % at 50 μM AChE
Use 30% as the dividing line for inhibition at 50 µM, with the line itself on the 1 side and lower values as -1.

                                   compound                                    system  classification
0  COc1ccc(-c2coc3cc(OCCCN4CCCCC4)ccc3c2=O)cc1 [compound 2]  AChE (Rattus norvegicus, UniProt P37136)              -1
1  COc1ccc(-c2coc3cc(OCCN(Cc4ccccc4)Cc4ccccc4)ccc3c2=O)cc1 [compound 11]  AChE (Rattus norvegicus, UniProt P37136)              -1
2  COc1ccc(-c2coc3cc(OCCN(C)Cc4ccccc4)ccc3c2=O)cc1 [compound 10]  AChE (Rattus norvegicus, UniProt P37136)              -1
3  O=c1c(-c2ccc(OCCN3CCCCC3)cc2)coc2cc(OCCN3CCCCC3)ccc12 [compound 16]  AChE (Rattus norvegicus, UniProt P37136)               1
4  CCN(C)CCOc1ccc2c(=O)c(-c3ccc(OC)cc3)coc2c1 [compound 4]  AChE (Rattus norvegicus, UniProt P37136)               1

Entry source: paper PMC6446070
